Measured TGI, listed per entry for reference.
System: SK-MEL-2 melanoma
Assay: NCI tumour cell line growth inhibition, 48 h

Consider the reported TGI for these molecules:
O=C(/C=C/c1cc2ccccc2[nH]c1=O)c1ccc(Cl)cc1
> 63.6 µM
COc1cc(CN[C@H]2CCc3cc(OC)c(OC)c(OC)c3-c3ccc(SC)c(=O)cc32)cc(OC)c1
0.474 µM
Cc1cccc(C(C)(C)C)c1NC(=O)CCl
> 100 µM

Please report the recorded TGI for CCC(O)CC1OC2(CCC1C)CC1OC(=O)/C=C\C(C)(O)C(O)C(C)C(O)C(OC3CC(OC)C(O)C(C)O3)C(O)C(C)(O)CCC/C=C/C3CC(C)COC3(O)CC(O2)C1C (centres undefined) .
29.6 µM
